target.system: PPARγ (Homo sapiens)
Construct: Following the challenge of the preadipocytes, cells may be lysed with lysis buffer; endogenous in cells; host or cells: preadipocytes
Sequence (P37231 whole entry): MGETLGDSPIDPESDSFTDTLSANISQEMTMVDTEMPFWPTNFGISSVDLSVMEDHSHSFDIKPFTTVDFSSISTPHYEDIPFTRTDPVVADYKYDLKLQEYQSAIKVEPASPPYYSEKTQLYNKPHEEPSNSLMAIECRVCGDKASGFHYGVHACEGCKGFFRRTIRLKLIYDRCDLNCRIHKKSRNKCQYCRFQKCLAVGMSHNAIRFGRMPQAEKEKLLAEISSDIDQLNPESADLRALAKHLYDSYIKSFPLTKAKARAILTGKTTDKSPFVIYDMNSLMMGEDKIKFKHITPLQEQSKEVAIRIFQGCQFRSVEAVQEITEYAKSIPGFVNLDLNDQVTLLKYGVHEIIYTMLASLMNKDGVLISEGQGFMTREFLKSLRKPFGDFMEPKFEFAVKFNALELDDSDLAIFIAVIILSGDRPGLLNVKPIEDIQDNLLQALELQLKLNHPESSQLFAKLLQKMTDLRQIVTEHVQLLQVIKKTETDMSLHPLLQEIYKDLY
test.details: aP2 Assay for PPAR Gamma Agonists (bDNA aP2 mRNA, preadipocytes)
Type: cell-based
test.context: bracketed values
outcome.measure: EC50

Looking for the measured EC50 of `CCN(C(=O)Nc1ccc(OC(F)(F)F)cc1)[C@@H]1Cc2ccc(SC(C)(C)C(=O)O)cc2C1` , can you help?
> 10 µM

---

target.system: PPARδ (Homo sapiens)
Sequence (Q03181 171-441 limits assumed): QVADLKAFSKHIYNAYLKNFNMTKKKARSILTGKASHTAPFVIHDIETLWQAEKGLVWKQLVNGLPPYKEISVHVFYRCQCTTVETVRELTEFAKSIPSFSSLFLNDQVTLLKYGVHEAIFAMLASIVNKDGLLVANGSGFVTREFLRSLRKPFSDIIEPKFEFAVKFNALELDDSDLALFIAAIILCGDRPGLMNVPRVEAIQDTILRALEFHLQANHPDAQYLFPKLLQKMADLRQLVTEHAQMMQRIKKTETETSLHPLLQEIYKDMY
test.details: Transfection Assay for PPARδ Receptors (PPAR-Gal4 receptor / Gal4-Luciferase Reporter, HEK293 cells)
Format: cell-based
test.context: fold induction, unbracketed values; PPARδ standard FI = 36.1
Protocol: Transfection Assay for PPARδ Receptors HEK293 cells were grown in DMEM/F-12 Media supplemented with 10% FBS and glutamine (GIBCOBRL). The cells were co-transfected with DNA for PPAR-Gal4 receptor and Gal4-Luciferase Reporter using the DMRIE-C Reagent. On the following day, the DNA-containing medium were replaced with 5% Charcoal treated FBS growth medium. After six hours, cells were seeded in 96 well plate and incubated at 37° C. in CO2 incubator overnight. […]
outcome.measure: PPARδ FI
One number for each entry.

CC(C)(Sc1ccc2c(c1)CC(N(CCCC1CCCC1)C(=O)Nc1ccc(OC(F)(F)F)cc1)C2)C(=O)O (stereo not drawn) [Example 28] : 8.2
CCCN(C(=O)Nc1ccc(OC)cc1)C1Cc2ccc(SC(C)(C)C(=O)O)cc2C1 (stereo not drawn) [Example 32] : 1.5

Fill in PPARδ FI for each of the 5 compounds listed.
1. CCCCCCN(C(=O)Nc1ccc(OC(F)(F)F)cc1)C1Cc2ccc(SC(C)(C)C(=O)O)cc2C1 (stereo not drawn) [Example 14]
2. CCCCCCN(C(=O)Nc1ccc(SC(F)(F)F)cc1)C1Cc2ccc(SC(C)(C)C(=O)O)cc2C1 (stereo not drawn) [Example 15]
3. CCCN(C(=O)Nc1ccc(OC(F)(F)F)cc1)C1CCc2ccc(SC(C)(C)C(=O)O)cc2C1 (stereo not drawn) [Example 46]
4. CCCCCN(C(=O)Nc1ccc(SC(F)(F)F)cc1)C1Cc2ccc(SC(C)(C)C(=O)O)cc2C1 (stereo not drawn) [Example 5]
5. CCCN(C(=O)Nc1cc(C)cc(C)c1)C1Cc2ccc(SC(C)(C)C(=O)O)cc2C1 (stereo not drawn) [Example 33]

[1.3, 1.2, 6.0, 2.5, 0.8]

Dear colleague, could you send me PPARδ FI for each of the items below? Thanks.
1. CCN(C(=O)Nc1ccc(OC(F)(F)F)cc1)C1Cc2ccc(SC(C)(C)C(=O)O)cc2C1 (stereo not drawn) [Example 2]
2. C=CCCCN(C(=O)Nc1ccc(OC(F)(F)F)cc1)C1Cc2ccc(SC(C)(C)C(=O)O)cc2C1 (stereo not drawn) [Example 19]
3. CCN(C(=O)Nc1ccc(N(C)C)cc1)C1Cc2ccc(SC(C)(C)C(=O)O)cc2C1 (stereo not drawn) [Example 7]
4. CC(C)(Sc1ccc2c(c1)CC(N(CCCC1CCCC1)C(=O)Nc1ccccc1)C2)C(=O)O (stereo not drawn) [Example 37]
5. CCCN(C(=O)Nc1ccc(C(F)(F)F)cc1)C1Cc2ccc(SC(C)(C)C(=O)O)cc2C1 (stereo not drawn) [Example 35]
6. CCN(C(=O)Nc1ccc(C(C)C)cc1)C1Cc2ccc(SC(C)(C)C(=O)O)cc2C1 (stereo not drawn) [Example 6]
7. CCN(C(=O)Nc1cccc(OC(F)(F)F)c1)C1Cc2ccc(SC(C)(C)C(=O)O)cc2C1 (stereo not drawn) [Example 26]

[4.2, 1.4, 0.8, 1.9, 5.6, 3.6, 2.1]

Please look at the items below and tell me PPARδ FI for each one, in order.
1. CCCCCN(C(=O)Nc1ccc2ccccc2c1)C1Cc2ccc(SC(C)(C)C(=O)O)cc2C1 (stereo not drawn) [Example 39]
2. CCCCCN(C(=O)Nc1ccc(OC(F)(F)F)cc1)C1Cc2ccc(SC(C)(C)C(=O)O)cc2C1 (stereo not drawn) [Example 8]

1. 9.3
2. 5.9

Can you give me PPARδ FI for all of these, one by one?
1. CCN(C(=O)Nc1ccc(OC(F)(F)F)c(Br)c1)C1Cc2ccc(SC(C)(C)C(=O)O)cc2C1 (stereo not drawn) [Example 25]
2. CCCCCN(C(=O)Nc1ccc(N(C)C)cc1)C1Cc2ccc(SC(C)(C)C(=O)O)cc2C1 (stereo not drawn) [Example 9]

1: 4.5; 2: 1.0

Sourced from patent US20060094786A1
